System: HEK-293T
protocol_description: Multiplex assay against HEK293T
Assay type: toxicity, cell-based
condition_context: human, 12 h, 10 µM, compound concentration 10 uM, replicate 1
endpoint_name: Population Healthy Nuclei (%)
Please respond with the number in % and leave the unit unwritten.

Example results:
[
  {
    "compound": "OC1(c2ccc(Cl)cc2)CCN(Cc2c[nH]c3ccccc23)CC1",
    "observed_value": 11
  },
  {
    "compound": "CC(C)(O)CNc1ncc(-c2ccnc(Nc3ccnc(Cl)c3)n2)c(CC2CC2)n1",
    "observed_value": 5
  },
  {
    "compound": "Cc1[nH]c(/C=C2\\C(=O)Nc3ccc(S(=O)(=O)N(C)c4cccc(Cl)c4)cc32)c(C)c1C(=O)N1CCN(C)CC1",
    "observed_value": 29
  },
  {
    "compound": "Cl.N#Cc1ccc2[nH]cc(CCCCN3CCN(c4ccc5oc(C(N)=O)cc5c4)CC3)c2c1 [VILAZODONE HYDROCHLORIDE]",
    "observed_value": 8
  },
  {
    "compound": "Cc1nc(-c2ccc(-c3ccc(C(=O)N4CCc5cc6c(cc54)C4(CCN(C)CC4)CO6)cc3)c(C)c2)no1",
    "observed_value": 22
  },
  {
    "compound": "Cc1cc(C)cc(-c2cnc3cc(Cl)c(-c4cccc(O)c4)cc3c2OCCCN)c1",
    "observed_value": 1
  },
  {
    "compound": "CNc1nc(NCc2ccc(NS(C)(=O)=O)cc2Cl)cc(-c2ccccn2)n1",
    "observed_value": 25
  },
  {
    "compound": "COc1ncc(-c2ccc3nccc(-c4ccnnc4)c3c2)cc1NS(=O)(=O)c1ccc(F)cc1F",
    "observed_value": 20
  }
]

input: Please report the recorded Population Healthy Nuclei (%) for CN1CCCC(n2nc(Cc3ccc(Cl)cc3)c3ccccc3c2=O)CC1.Cl (stereo unspecified) [AZELASTINE HYDROCHLORIDE] .
output: 16

input: Would you kindly repeat that for "CCN(CC)CCCCNc1ncc2cc(-c3cc(OC)cc(OC)c3)c(NC(=O)NC(C)(C)C)nc2n1" ?
output: 52

input: Next up: "Cn1cc(-c2[nH]c3cc(NC(=O)[C@H](N)C4CCCCC4)cc4c3c2C=NNC4=O)cn1"
output: 24

input: Try "CN1CCN(CCOc2cc(OC3CCOCC3)c3c(Nc4c(Cl)ccc5c4OCO5)ncnc3c2)CC1" next.
output: 21

input: Moving on to the next compound: COc1cccc([C@@H](C)NCCCc2ccccc2Cl)c1.Cl [TECALCET HYDROCHLORIDE]
output: 29

input: For "CN(C)C(=O)/C(C#N)=C/c1ccc(-c2nc3cnc4[nH]ccc4c3n2C2CCCCC2)o1" then?
output: 39

input: Field entry: O=C1NCN(c2ccccc2)C12CCN(CCCOc1ccc(F)cc1)CC2 [SPIRAMIDE]
output: 13

input: Item: "CC[C@H](C)C(=O)O[C@H]1C[C@@H](C)C=C2C=C[C@H](C)[C@H](CC[C@@H]3C[C@@H](O)CC(=O)O3)[C@H]21"
output: 33

input: For "c1cn2cc(-c3ccc4cn[nH]c4c3)nc(Nc3ccc(N4CCOCC4)cc3)c2n1" then?
output: 6

---

Test system: Fibroblast
protocol_description: Incucyte cell viability with human fibroblast; note: filed as whole numbers so only -1 and 0 and 1 occur
Format: toxicity, cell-based
condition_context: 12 h, 10 µM, compound concentration 10 uM, replicate number 1, timepoint 12 hours
Overview of recorded Growth Rate for various compounds
Lab note: jot down the number only; don't add units.

Would you please look over these solved cases?
[
  {
    "compound": "CN1C(=O)[C@@H](N2CCc3cn(Cc4ccccc4)nc3C2=O)COc2ccccc21 [TP-030-1]",
    "experimental_system": "Fibroblast",
    "observed_value": 0
  },
  {
    "compound": "CC(C)C(=O)Nc1n[nH]c2cc(-c3cccc(NS(=O)(=O)C4CC4)c3)ccc12",
    "experimental_system": "Fibroblast",
    "observed_value": 0
  },
  {
    "compound": "Br.Br.N=C(N)SCCc1c[nH]cn1",
    "experimental_system": "Fibroblast",
    "observed_value": 0
  },
  {
    "compound": "COc1cc(-c2cn([C@H]3CCc4c(F)cccc4N(CC(F)(F)F)C3=O)nn2)ccc1-n1cnc(C)c1",
    "experimental_system": "Fibroblast",
    "observed_value": 1
  },
  {
    "compound": "C[C@@H](c1cccc(CN)c1)n1cc(Cl)cc(C(N)=O)c1=N.Cl",
    "experimental_system": "Fibroblast",
    "observed_value": 1
  }
]

input: Suppose we examine the compound C[C@H]1CC(=O)Nc2cc(C(=O)NCCC3CC3)ccc2N1C(=O)N1CC2CC2C1 (some centres undefined) ; what Growth Rate value has been reported?
output: 1

input: Repeat with C[C@@]1(Cc2ccc(C#N)cc2)C(=O)N(c2cc(Cl)cc(Cl)c2)c2ncc(C(=O)NC3(c4nc(C5CCC5)no4)CC3)n21 [BI 9446]
output: 0

input: // same read-out, input: "CNCCN1CCC(OCc2ccccc2)CC1"
output: 0

input: Query Cc1cc(F)c(C(=O)Nc2cccc(-c3nncn3C(C)C)n2)cc1-n1cnc(C2CC2)c1 [SELONSERTIB] next
output: 1

---

Tested on: U2OS
protocol_description: Multiplex assay against U2OS
Format: toxicity, cell-based
condition_context: human, 24 h, 10 µM, compound concentration 10 uM, replicate 2
Record true whenever Population Mitochondria Different-Phenotype (%) is at 90% or higher; record false when lower.

[
  {
    "compound": "Cc1nc(Nc2n[nH]c3c2CN(C(=O)N[C@H](CN(C)C)c2ccccc2)C3(C)C)c2sccc2n1",
    "group": "false"
  },
  {
    "compound": "Cc1nc(-c2cn3c(n2)-c2ccc(-c4cnn(C(C)(C)C(N)=O)c4)cc2OCC3)n(C(C)C)n1",
    "group": "false"
  },
  {
    "compound": "COc1cc2nccc(Oc3ccc(NC(=O)Nc4cc(C)on4)c(Cl)c3)c2cc1OC.O",
    "group": "true"
  },
  {
    "compound": "CNc1nc(NCc2ccc(NS(C)(=O)=O)cc2Cl)cc(-c2ccccn2)n1",
    "group": "false"
  }
]

input: Decide: is the reported value of Population Mitochondria Different-Phenotype (%) for "Cc1cc(C)cc(-c2cnc3cc(Cl)c(-c4cccc(O)c4)cc3c2OCCCN)c1" equal to or greater than 90%?
output: false

input: What do we get for "COc1ncc(-c2ccc3nccc(-c4ccnnc4)c3c2)cc1NS(=O)(=O)c1ccc(F)cc1F" ?
output: false

input: Same read-out for C=CC(=O)Nc1cc2c(Nc3ccc(F)c(Cl)c3)ncnc2cc1OCCCN1CCOCC1.Cl.Cl [CANERTINIB DIHYDROCHLORIDE] ?
output: false

input: Try this compound too: CC(C)NCC(O)COc1ccc(CCOCC2CC2)cc1.Cl (stereo unspecified) [BETAXOLOL HYDROCHLORIDE]
output: false

---

System: Fibroblast
protocol_description: Multiplex assay against human fibroblast
Type: toxicity, cell-based
condition_context: 12 h, 10 µM, compound concentration 10 uM, replicate 1
endpoint_name: Population Normal (%)

[
  {
    "compound": "Cc1nc(-c2ccc(-c3ccc(C(=O)N4CCc5cc6c(cc54)C4(CCN(C)CC4)CO6)cc3)c(C)c2)no1",
    "observed_value": "84%"
  },
  {
    "compound": "C=CC(=O)Nc1cccc(C(=O)Nc2ccc(Nc3cc(-c4[nH]c(SC)nc4C)ccn3)cc2)c1",
    "observed_value": "80%"
  },
  {
    "compound": "CN(C)C(=O)N[C@H]1CC[C@H](CCN2CCN(c3cccc(Cl)c3Cl)CC2)CC1.Cl [CARIPRAZINE HYDROCHLORIDE]",
    "observed_value": "83%"
  },
  {
    "compound": "Cc1cc(C)cc(-c2cnc3cc(Cl)c(-c4cccc(O)c4)cc3c2OCCCN)c1",
    "observed_value": "88%"
  },
  {
    "compound": "Cc1c(-c2ccc(O)cc2)n(Cc2ccc(OCCN3CCCCCC3)cc2)c2ccc(O)cc12",
    "observed_value": "73%"
  }
]

# context switch: different compound, same Population Normal (%)
input: Param item = CN1CCC[C@@H]1CCO[C@](C)(c1ccccc1)c1ccc(Cl)cc1.O=C(O)/C=C/C(=O)O [CLEMASTINE FUMARATE] ; retrieve measured Population Normal (%).
output: 90%

---

System: HEK-293T
protocol_description: Multiplex assay against HEK293T
Assay type: toxicity, cell-based
condition_context: human, 24 h, 1 µM, compound concentration 1 uM, replicate 1
endpoint_name: Population Hoechst High Intensity Objects (%)
Provide only the numeric value, understood in %.

Take a look at these entries with their results.
[
  {
    "compound": "COc1cc(-n2cnc3cc(-c4ccc(Cl)cc4)sc3c2=O)ccc1OCCN1CCCC1",
    "observed_value": 14
  },
  {
    "compound": "Cl.N#Cc1ccc2[nH]cc(CCCCN3CCN(c4ccc5oc(C(N)=O)cc5c4)CC3)c2c1 [VILAZODONE HYDROCHLORIDE]",
    "observed_value": 6
  },
  {
    "compound": "Cc1nc(-c2ccc(-c3ccc(C(=O)N4CCc5cc6c(cc54)C4(CCN(C)CC4)CO6)cc3)c(C)c2)no1",
    "observed_value": 10
  },
  {
    "compound": "C[C@@H](NCCCc1cccc(C(F)(F)F)c1)c1cccc2ccccc12.Cl [CINACALCET HYDROCHLORIDE]",
    "observed_value": 7
  },
  {
    "compound": "CN1CCN(CCOc2cc(OC3CCOCC3)c3c(Nc4c(Cl)ccc5c4OCO5)ncnc3c2)CC1",
    "observed_value": 13
  }
]

// next item, Population Hoechst High Intensity Objects (%) requested
input: Give its Population Hoechst High Intensity Objects (%) value. Item: "CC(C)(O)CNc1ncc(-c2ccnc(Nc3ccnc(Cl)c3)n2)c(CC2CC2)n1"
output: 15
